study_target: dopamine (DA) reuptake in synaptosomes (Rattus norvegicus)
Construct: in synaptosomes as described in WO 97/16451; from tissue
Sequence (P23977 whole entry): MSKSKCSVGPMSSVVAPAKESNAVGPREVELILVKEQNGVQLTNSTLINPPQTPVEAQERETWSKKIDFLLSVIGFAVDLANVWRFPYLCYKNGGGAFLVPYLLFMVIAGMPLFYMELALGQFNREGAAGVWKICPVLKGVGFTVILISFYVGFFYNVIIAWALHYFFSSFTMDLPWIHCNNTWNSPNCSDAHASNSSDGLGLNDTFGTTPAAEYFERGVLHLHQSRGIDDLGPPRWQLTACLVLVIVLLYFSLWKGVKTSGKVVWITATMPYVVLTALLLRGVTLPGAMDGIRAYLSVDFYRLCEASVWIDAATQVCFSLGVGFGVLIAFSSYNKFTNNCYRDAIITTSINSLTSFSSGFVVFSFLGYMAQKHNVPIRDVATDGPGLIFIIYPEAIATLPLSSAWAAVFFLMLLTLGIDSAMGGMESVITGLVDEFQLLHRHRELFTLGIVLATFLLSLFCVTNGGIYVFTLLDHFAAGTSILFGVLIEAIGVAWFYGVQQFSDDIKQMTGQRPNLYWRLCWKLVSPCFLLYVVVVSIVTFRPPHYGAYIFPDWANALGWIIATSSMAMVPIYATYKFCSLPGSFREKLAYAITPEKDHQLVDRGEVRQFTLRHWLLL
run_description: Inhibition of dopamine reuptake in synaptosomes
Format: biochemical
stated_conditions: 3H-DA, as described in WO 97/16451, read-out: DA-uptake IC50
Measured pIC50 of individual entries
// returns pIC50 (minus log10 of molar concentration), number only

Previously resolved entries follow.
Return reported pIC50; argument: Cc1ccc(C2=CC3CCC(C2)N3)cc1Br (racemic)
7.89

So what's the measured pIC50 for this one? Cc1cc(C2=CC3CCC(C2)N3)ccc1Cl (single isomer, unassigned; (+))
6.96

---
Return reported pIC50; argument: Cc1ccc(C2=CC3CCC(C2)N3)cc1Cl (single isomer, unassigned; (-))
6.85
